# assayExplanation: clinical
# recordedConditions: both, human, plasma, po, 900 mg
measurementType: Cmax (ng/mL)
State the answer as a number, implicitly in ng/mL.

Cmax reading for NC(=O)N1c2ccccc2C[C@H](O)c2ccccc21 [eslicarbazepine] : 22200

----------
# assayExplanation: Trial B: pharmacokinetics following single and repeated doses in healthy young male subjects
# Assay type: in vivo, humans
# recordedConditions: 2400 mg once-daily doses of eslicarbazepine acetate
measurementType: mean AUC0-24h (µg·h/mL)
State the answer as a number, implicitly in µg·h/mL.

mean AUC0-24h reading for NC(=O)N1c2ccccc2C[C@H](O)c2ccccc21 [eslicarbazepine] : 906

----------
# assayExplanation: Trial B: pharmacokinetics following single and repeated doses in healthy young male subjects
# Format: in vivo, humans
# recordedConditions: male, human, in vivo, oral, 1200 mg, single dose 1200 mg eslicarbazepine acetate, n=6; read-out: Mean Cmax (%CV)
# Description: The study integrated the results of three double-blind, randomized, placebo-controlled trials. […] The pharmacokinetics of eslicarbazepine acetate following repeated doses were measured by administering repeated oral doses ranging from 400 mg to 2400 mg of eslicarbazepine acetate to healthy young male subjects (6 subjects per dose) over a period of 8 days. […]
measurementType: Cmax (ng/mL)
State the answer as a number, implicitly in ng/mL.

Cmax reading for NC(=O)N1c2ccccc2C[C@H](O)c2ccccc21 [eslicarbazepine] : 18600
